Cited source: ChEMBL document CHEMBL3872241

Assign IC50 to each entry below.
# ASSAY DETAILS: Cytotoxicity against human HCT116 cells assessed as cell growth inhibition after 48 hrs by MTT assay
# Format: functional, cell-based
# MEASUREMENT PARAMETERS: HCT-116, 48 h
Answers are plain numbers, in µM.

These recorded examples may help you get a feel for the data.
SMILES TEXT: COc1cc(OC)cc(/C(C#N)=C/c2ccc(N(C)C)cc2)c1
ENDPOINT NAME: IC50
VALUE MEASURED: 0.59
--
SMILES TEXT: Oc1ccc(/C=C/c2cc(O)cc(O)c2)cc1
ENDPOINT NAME: IC50
VALUE MEASURED: 62.6
--
SMILES TEXT: COc1cc(OC)cc(/C(C#N)=C/c2cccs2)c1
ENDPOINT NAME: IC50
VALUE MEASURED: 31.6
--
SMILES TEXT: CCOc1ccc(/C=C(\C#N)c2cc(OC)cc(OC)c2)cc1
ENDPOINT NAME: IC50
VALUE MEASURED: 0.13

Turning now to a further compound:
Consider the compound shown here: COc1cc(OC)cc(/C(C#N)=C/c2cccc(F)c2)c1 What is its recorded IC50?
38
